- PROTOCOL: Hepatocyte intrinsic clearance, rat
- Assay type: in vitro ADME
- TEST PARAMETERS: hepatocytes

{"columns": ["ITEM SMILES", "hepatocyte CLint (µL/min/1e6 cells)"],
 "data": [
  ["CNc1cc2nc(N[C@@H](C)c3cncc(F)c3)nc(C(=O)N3CC[C@@H](O)C3)c2s1", 4.61],
  ["Cc1cc2nc(N[C@@H](C)c3cncc(F)c3)nc(C(=O)NC[C@H](C)O)c2s1", 65.9],
  ["Cc1cc2nc(N[C@@H](C)c3cccnc3)nc(C(=O)N3CC[C@H](O)C3)c2s1", 22.6],
  ["C[C@H](Nc1nc(C(=O)N2CC[C@H](F)C2)c2sccc2n1)c1cncc(F)c1", 21.1],
  ["Cc1cc2nc(N[C@@H](C)c3ccccn3)nc(C(=O)N3CC[C@@H](O)C3)c2s1", 18.8],
  ["Cc1cc2nc(N[C@@H](C)c3cccnc3)nc(C(=O)N3CCC3)c2s1", 42.7],
  ["Cc1cc2nc(N[C@@H](C)c3cncc(F)c3)nc(C(=O)N3CC[C@@H](O)C3)c2s1", 23.9],
  ["Cc1cc2nc(N[C@@H](C)c3cncc(F)c3)nc(C(=O)N3CC(O)C3)c2s1", 45.9]
]}

====

Recorded measurements of pIC50, one per entry
- MEASURED ON: adenosine A3 receptor (Homo sapiens (Human), UniProt P0DMS8)
- Sequence (P0DMS8 whole entry): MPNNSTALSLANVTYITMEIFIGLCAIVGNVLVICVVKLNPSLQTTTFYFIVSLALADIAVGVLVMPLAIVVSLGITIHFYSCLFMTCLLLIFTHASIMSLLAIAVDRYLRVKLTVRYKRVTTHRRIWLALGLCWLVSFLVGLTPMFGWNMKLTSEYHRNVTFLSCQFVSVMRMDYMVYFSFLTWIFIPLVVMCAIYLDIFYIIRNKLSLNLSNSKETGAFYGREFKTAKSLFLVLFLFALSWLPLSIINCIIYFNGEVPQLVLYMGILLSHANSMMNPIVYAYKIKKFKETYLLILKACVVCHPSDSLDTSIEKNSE
- PROTOCOL: Adenosine receptor activity assay (Table 1), A3 cAMP
- Type: biochemical
pIC50: −log10 of the molar value.
METRIC NAME: pIC50

{"columns": ["COMPOUND", "METRIC NAME", "ASSAY RESULT"],
 "data": [
  ["C[C@H](Nc1nc(C(=O)N2CC(NC(=O)c3cccc(Cl)c3)C2)c2sccc2n1)c1cncc(F)c1", "pIC50", "6.30 to 7.00"],
  ["C[C@H](Nc1nc(C(=O)N2CC(NC(=O)C3CCOCC3)C2)c2sccc2n1)c1cncc(F)c1", "pIC50", "< 6.30"],
  ["Cc1cc(C(=O)NC2CN(C(=O)c3nc(N[C@@H](C)c4cncc(F)c4)nc4ccsc34)C2)c(C)o1", "pIC50", "6.30 to 7.00"],
  ["C[C@H](Nc1nc(C(=O)N2CC(NC(=O)C34CCC(CC3)CC4)C2)c2sccc2n1)c1cncc(F)c1", "pIC50", "7.30 to 8.00"],
  ["C[C@H](Nc1nc(C(=O)N2CC(NC(=O)c3ccc(Cl)cc3)C2)c2sccc2n1)c1cncc(F)c1", "pIC50", "< 6.30"],
  ["C[C@H](Nc1nc(C(=O)N2CC(NC(=O)C3(C)CCC3)C2)c2sccc2n1)c1cncc(Cl)c1", "pIC50", "6.30 to 7.00"],
  ["C[C@H](Nc1nc(C(=O)N2CC(NC(=O)C(C)(C)C)C2)c2sccc2n1)c1cncc(Cl)c1", "pIC50", "6.30 to 7.00"],
  ["C[C@H](Nc1nc(C(=O)N2CC(NC(=O)NC3CCC3)C2)c2sccc2n1)c1cncc(F)c1", "pIC50", "6.30 to 7.00"],
  ["C[C@H](Nc1nc(C(=O)N2CC(NC(=O)Nc3ccccc3)C2)c2sccc2n1)c1cncc(F)c1", "pIC50", "6.30 to 7.00"],
  ["C[C@H](Nc1nc(C(=O)N2CC(NC(=O)C34CC(C3)C4)C2)c2sccc2n1)c1cncc(F)c1", "pIC50", "6.30 to 7.00"],
  ["C[C@H](Nc1nc(C(=O)N2CC(NC(=O)NC(C)(C)C)C2)c2sccc2n1)c1cncc(F)c1", "pIC50", "6.30 to 7.00"],
  ["C[C@H](Nc1nc(C(=O)N2CC(NC(=O)c3cccnc3)C2)c2sccc2n1)c1cncc(F)c1", "pIC50", "< 6.30"],
  ["C[C@H](Nc1nc(C(=O)N2CC(NC(=O)c3ccncc3)C2)c2sccc2n1)c1cncc(F)c1", "pIC50", "< 6.30"],
  ["C[C@H](Nc1nc(C(=O)N2CC(NC(=O)C3CCCC3)C2)c2sccc2n1)c1cncc(F)c1", "pIC50", "6.30 to 7.00"],
  ["CCC(CC)NC(=O)NC1CN(C(=O)c2nc(N[C@@H](C)c3cncc(F)c3)nc3ccsc23)C1", "pIC50", "7.30 to 8.00"],
  ["C[C@H](Nc1nc(C(=O)N2CC(NC(=O)C3(C)CC3)C2)c2sccc2n1)c1cncc(F)c1", "pIC50", "6.30 to 7.00"],
  ["C[C@H](Nc1nc(C(=O)N2CC(NC(=O)C34CC5CC(CC(C5)C3)C4)C2)c2sccc2n1)c1cncc(F)c1", "pIC50", "7.30 to 8.00"],
  ["C[C@H](Nc1nc(C(=O)N2CC(NC(=O)c3ccc(-c4ccccc4)cc3)C2)c2sccc2n1)c1cncc(F)c1", "pIC50", "7.00 to 7.30"],
  ["C[C@H](Nc1nc(C(=O)N2CC(NC(=O)C3(C)CCOC3)C2)c2sccc2n1)c1cncc(F)c1 (stereo partly shown)", "pIC50", "< 6.30"],
  ["C[C@H](Nc1nc(C(=O)N2CC(NC(=O)c3cccc(F)c3)C2)c2sccc2n1)c1cncc(F)c1", "pIC50", "6.30 to 7.00"],
  ["C[C@H](Nc1nc(C(=O)N2CC(NC(=O)C(C)(C)C(F)(F)F)C2)c2sccc2n1)c1cncc(F)c1", "pIC50", "6.30 to 7.00"],
  ["C[C@H](Nc1nc(C(=O)N2CC(NC(=O)C3(C#N)CC3)C2)c2sccc2n1)c1cncc(F)c1", "pIC50", "< 6.30"]
]}
